- Procedure text: inhibitors of TNFa-induced NFkB p65 translocation, primary screen, imaging, HUVEC, MLSMR starter and 10KST1 sets (AID 438);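 note: compound added about 3h40 before a 20 min TNFalpha stimulation; signal is the nuclear over cytoplasmic p65 intensity ratio per well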
- Condition parameters: HUVEC TNFa-induced p65 nuclear translocation; at 2 µM, stronger effect = higher value, 0% TNFa-plus-vehicle, 100% no-TNFa wells
Activity calls are given as the source filed them.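 Rule for the calls: active = inhibition above 20% together with a positive visual image hit; inconclusive = visual image hit but inhibition not above 20%; inactive = no visual image hit.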
Hi there, I'd appreciate the recorded inhibition for every entry that follows.

Solved cases below.
• Cc1ccc(O)c(C(=O)c2cc(C#N)c(=O)n(CC3CCCO3)c2)c1 (configuration not stated) = -20.3% (inactive)
• CCC(Sc1nc2n[nH]c(C)c2c(=N)n1-c1cc(Cl)ccc1C)C(=O)N1CCOCC1 (configuration not stated) = -2.1% (inactive)
• CNC(=O)c1c(O)c2cccc3c2n(c1=O)CC3 = -8.8% (inactive)

Give one value of inhibition per listed compound.
1. OCC#CCSc1nnc(-c2ccccc2Br)o1
2. COc1nc2ccc(C)cc2cc1-c1noc(-c2cccnc2)n1
3. CCCCN(C)Cc1c(C)[nH]c2c(Cl)cccc2c1=O

stdout:
["-5.2% (inactive)", "-0.9% (inactive)", "-0.2% (inactive)"]

---

- Procedure text: endothelial E-selectin expression blockers – imaging, HUVEC, immunofluorescence, MLSMR starter and 10KST1 sets, primary screen (AID 487);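 note: signal is fraction of cell area covered by stained E-selectin grains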
- Condition parameters: HUVEC TNFalpha-induced E-selectin immunofluorescence imaging, at 2 µM; stronger effect = higher value
The source made the active and inactive calls.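 Rule for the calls: active = visually confirmed hit in the image check and inhibition above 20%; inconclusive = visually confirmed hit but inhibition not above 20%; inactive = no visual hit in the image check.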
Assign inhibition to each entry below.

• COCCn1c(SCC(=O)Nc2nnc(C)s2)nnc1-c1c[nH]c2ccccc12 = -37.4% (inactive)
• Cc1ccc(NC(=O)C2CCCNC2=O)nc1 (stereo not given) = -48.5% (inactive)
• Cc1ccc(Cn2nnc3c(=O)[nH]c(C4CCN(C(=O)c5cccs5)CC4)nc32)cc1 = -71.2% (inactive)
• CN(C)CCCN1c2ccccc2CCc2ccccc21 = -9.2% (inactive)
• O=C1CC(c2ccc(Cl)cc2)n2nc(N3C(=O)c4ccccc4C3=O)nc2N1 (stereo not given) = 30.5% (inactive)

Each compound below has a reported value. Please supply its inhibition.
1. Cc1ccc(-c2nn3c(=O)c(C)nnc3s2)cc1
2. CN1C(=O)C2(NCCc3c2[nH]c2ccccc32)c2ccccc21 (stereo not given)
3. CN1CCN(C(=O)c2ccccc2N(Cc2ccccc2)S(C)(=O)=O)CC1

stdout:
["3.6% (inactive)", "-4.8% (inactive)", "-6% (inactive)"]

For each of the items listed, what is its inhibition?
1. CCn1cc(C(=O)N2CCCC2)c(=O)c2cc(S(=O)(=O)N3CCOCC3)ccc21
2. Cc1ccc(C2CC(c3cccc(Br)c3)Nc3nnnn32)cc1 (stereo not given)

stdout:
1. 14.8% (inactive)
2. -1.3% (inactive)

---

- Procedure text: reduction of polyQ htt aggregates in cells – imaging, exon1htt(103Q)mCFP cells, high-content imaging, primary screen (AID 483);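 note: compound exposure lasted 3 days before fixation; percent of the per-plate median nuclei count of sample wells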
- Condition parameters: exon1htt(103Q)mCFP cell line, aggregate imaging, at 2 µM; measured here: cell count, toxicity
Please provide measured nuclei count for the entries that follow.
Answers are plain numbers, in %.

Solved cases (4 shown):
* CCn1c(=O)cc(OCC(=O)NCCCN2CC(C)CC(C)C2)c2ccccc21 (configuration not stated) | 111
* Cc1cccc(N(CC(N)=O)S(C)(=O)=O)c1C | 100
* Nc1nonc1-c1noc(CCCCCN2C(=O)c3ccccc3C2=O)n1 | 91
* O=C(CSc1nnc(Cn2nnc(-c3ccccc3)n2)n1-c1ccccc1)Nc1ccc(F)cc1 | 101

Dear reader, for each entry below, please note its nuclei count.
1. CCOC(=O)CNC(=O)c1c(C)nn(-c2ccccc2)c1Cl
2. Cc1ccc(SCCNS(=O)(=O)c2ccc(F)cc2)cc1
3. CCn1cc(C(=O)NCC2COc3ccccc3O2)c2cc(OC)c(OC)cc2c1=O (configuration not stated)
4. CC(C)CC(=O)CN1C(=O)C2(OCCO2)c2ccccc21
5. Cc1ccc(S(=O)(=O)N2CCOCC2)cc1C(=O)OCC(=O)N1CCc2ccccc2C1
6. COc1ccc(OC)c(C2C3=C(CCCC3=O)Nc3c2c(=O)n(C)c(=O)n3C)c1 (configuration not stated)
7. O=C(CCCCCn1c(=O)[nH]c2ccsc2c1=O)N1CCCCC1
8. N#C[C@@H]1[C@@H]2C(=O)N(c3ccc4c(c3)OCCO4)C(=O)[C@@H]2C2c3ccccc3C=CN21 (some centres not stated)

stdout:
56.2
106
101
100
98.4
89.5
91.7
107
